# assay-comment: Solubility of compound in 3 equimolar NaOH and distilled water
# Format: physicochemical
# cond: buffer
Provide the reported solubility of each item.

Query block: Which solubility value is on record for `O=C1Nc2ccc([N+](=O)[O-])cc2/C1=C1/Nc2ccc(Br)cc2/C1=N/O` ?
Result block: < 0.1 mg/mL

Query block: Which solubility value is on record for `O=Nc1c(-c2c(O)[nH]c3ccc([N+](=O)[O-])cc23)[nH]c2ccccc12` ?
Result block: < 0.1 mg/mL

Query block: Which solubility value is on record for `O=C1Nc2ccc([N+](=O)[O-])cc2/C1=C1/Nc2ccc(O)cc2/C1=N/O` ?
Result block: 3 mg/mL

* * *

# system-name: Cyclin-dependent kinase 1/cyclin B1 (Homo sapiens)
# Sequence (P06493 whole entry): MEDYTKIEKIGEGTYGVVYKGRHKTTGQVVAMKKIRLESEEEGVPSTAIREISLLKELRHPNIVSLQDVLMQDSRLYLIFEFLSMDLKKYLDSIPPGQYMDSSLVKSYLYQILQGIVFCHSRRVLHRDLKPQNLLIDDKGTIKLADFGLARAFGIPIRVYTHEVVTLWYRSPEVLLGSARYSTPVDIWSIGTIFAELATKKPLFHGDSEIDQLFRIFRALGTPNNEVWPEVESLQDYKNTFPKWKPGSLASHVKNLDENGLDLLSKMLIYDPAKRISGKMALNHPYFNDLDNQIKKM
# Sequence (P14635 whole entry, further chain): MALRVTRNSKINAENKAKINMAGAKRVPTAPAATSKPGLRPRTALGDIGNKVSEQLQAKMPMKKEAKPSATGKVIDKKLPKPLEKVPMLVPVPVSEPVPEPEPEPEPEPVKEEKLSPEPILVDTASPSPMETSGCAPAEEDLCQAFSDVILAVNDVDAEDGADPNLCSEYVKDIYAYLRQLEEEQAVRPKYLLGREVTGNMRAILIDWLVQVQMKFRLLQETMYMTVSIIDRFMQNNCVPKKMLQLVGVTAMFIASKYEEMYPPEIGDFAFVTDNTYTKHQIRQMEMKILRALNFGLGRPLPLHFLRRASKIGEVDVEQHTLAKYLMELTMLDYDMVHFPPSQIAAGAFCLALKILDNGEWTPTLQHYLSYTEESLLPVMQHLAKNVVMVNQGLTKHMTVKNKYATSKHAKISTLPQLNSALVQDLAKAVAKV
# assay-comment: Inhibition of CDK1/cyclin B after 40 mins by liquid scintillation counting
assay-endpoint: IC50
Quote the value and follow it with the unit of measurement.

Query block: Which IC50 value is on record for `O=C1Nc2ccc([N+](=O)[O-])cc2/C1=C1/Nc2ccc(O)cc2/C1=N/O` ?
Result block: 13 nM

* * *

# system-name: Cyclin-dependent kinase 2/cyclin E1 (Homo sapiens, UniProt P24941)
# assay-comment: Inhibition of CDK2/cyclin E
IC50 under 9 nM gets 1, anything at or over 9 nM gets -1.

Query block: Decide: IC50 of `Cc1ccc2c(c1)C(=N/O)/C(=C1/C(=O)Nc3ccc([N+](=O)[O-])cc31)N2` strictly below 9 nM?
Result block: 1

Query block: Decide: IC50 of `O=Nc1c(-c2c(O)[nH]c3ccc([N+](=O)[O-])cc23)[nH]c2ccccc12` strictly below 9 nM?
Result block: 1

Query block: Decide: IC50 of `O=C1Nc2ccc([N+](=O)[O-])cc2/C1=C1/Nc2ccc(Cl)cc2/C1=N/O` strictly below 9 nM?
Result block: -1

Query block: Decide: IC50 of `O=C1Nc2ccc(Cl)cc2/C1=C1/Nc2ccc(O)cc2/C1=N/O` strictly below 9 nM?
Result block: 1

Query block: Decide: IC50 of `O=C1Nc2ccc(F)cc2/C1=C1/Nc2ccc(O)cc2/C1=N/O` strictly below 9 nM?
Result block: 1

Query block: Decide: IC50 of `O=C1Nc2ccc(F)cc2/C1=C1/Nc2ccc(Cl)cc2/C1=N/O` strictly below 9 nM?
Result block: -1

Query block: Decide: IC50 of `COc1ccc2c(c1)C(=N/O)/C(=C1/C(=O)Nc3ccc([N+](=O)[O-])cc31)N2` strictly below 9 nM?
Result block: -1

* * *

# system-name: High affinity nerve growth factor receptor (Homo sapiens, UniProt P04629)
# Sequence (P04629 whole entry): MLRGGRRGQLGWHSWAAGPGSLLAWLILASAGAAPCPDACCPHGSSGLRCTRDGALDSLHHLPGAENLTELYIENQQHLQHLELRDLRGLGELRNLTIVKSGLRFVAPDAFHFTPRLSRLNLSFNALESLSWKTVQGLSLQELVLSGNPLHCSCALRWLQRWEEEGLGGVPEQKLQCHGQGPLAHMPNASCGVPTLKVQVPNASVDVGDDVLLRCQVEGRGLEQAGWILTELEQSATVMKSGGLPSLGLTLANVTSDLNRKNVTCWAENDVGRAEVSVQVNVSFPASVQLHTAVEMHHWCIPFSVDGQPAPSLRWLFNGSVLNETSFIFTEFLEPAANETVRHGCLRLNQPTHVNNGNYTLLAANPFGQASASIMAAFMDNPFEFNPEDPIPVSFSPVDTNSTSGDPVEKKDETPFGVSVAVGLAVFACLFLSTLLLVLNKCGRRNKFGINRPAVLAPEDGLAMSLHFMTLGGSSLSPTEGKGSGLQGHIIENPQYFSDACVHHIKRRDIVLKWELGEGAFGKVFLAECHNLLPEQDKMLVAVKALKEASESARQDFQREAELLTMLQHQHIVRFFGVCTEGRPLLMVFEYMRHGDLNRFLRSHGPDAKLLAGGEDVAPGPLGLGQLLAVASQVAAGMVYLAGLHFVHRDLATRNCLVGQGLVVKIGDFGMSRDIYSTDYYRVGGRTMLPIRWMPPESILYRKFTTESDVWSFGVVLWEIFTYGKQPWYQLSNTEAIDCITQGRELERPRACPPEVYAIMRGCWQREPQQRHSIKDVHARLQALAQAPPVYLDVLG
# assay-comment: Inhibition of recombinant TrKa preincubated for 15 mins by HTRF assay
assay-endpoint: IC50
Quote the value and follow it with the unit of measurement.

Query block: Which IC50 value is on record for `O=C1Nc2ccc([N+](=O)[O-])cc2/C1=C1/Nc2ccc(O)cc2/C1=N/O` ?
Result block: 4 µM

* * *

Provide the reported Selectivity ratio of each item.
# assay-comment: Selectivity ratio for CDK2/cyclinE over CDK1/cyclin B
API doc: respond with a numeric literal and nothing else, no unit.

Query block: Which Selectivity ratio value is on record for `O=C1Nc2ccc(F)cc2/C1=C1/Nc2ccc(F)cc2/C1=N/O` ?
Result block: 6

Query block: Which Selectivity ratio value is on record for `O=C1Nc2ccc([N+](=O)[O-])cc2/C1=C1/Nc2ccc(F)cc2/C1=N/O` ?
Result block: 6

Query block: Which Selectivity ratio value is on record for `O=C1Nc2ccc(OC(F)(F)F)cc2/C1=C1/Nc2ccc(Cl)cc2/C1=N/O` ?
Result block: 6

Query block: Which Selectivity ratio value is on record for `O=C1Nc2ccc(Cl)cc2/C1=C1/Nc2ccc(F)cc2/C1=N/O` ?
Result block: 6

Query block: Which Selectivity ratio value is on record for `O=C1Nc2ccc(OC(F)(F)F)cc2/C1=C1/Nc2ccc(F)cc2/C1=N/O` ?
Result block: 6

Query block: Which Selectivity ratio value is on record for `O=C1Nc2ccc(Cl)cc2/C1=C1/Nc2ccc(Cl)cc2/C1=N/O` ?
Result block: 6

Query block: Which Selectivity ratio value is on record for `O=C1Nc2ccc(F)cc2/C1=C1/Nc2ccc(Cl)cc2/C1=N/O` ?
Result block: 6

Query block: Which Selectivity ratio value is on record for `O=C1Nc2ccc([N+](=O)[O-])cc2/C1=C1/Nc2ccc(Cl)cc2/C1=N/O` ?
Result block: 8

Query block: Which Selectivity ratio value is on record for `Cc1ccc2c(c1)C(=N/O)/C(=C1/C(=O)Nc3ccc([N+](=O)[O-])cc31)N2` ?
Result block: 7

* * *

Provide the reported solubility of each item.
# assay-comment: Solubility of compound in 3 equimolar NaOH and 0.1 N NaHCO3 buffer
# Assay type: physicochemical

Query block: Which solubility value is on record for `O=C1Nc2ccc([N+](=O)[O-])cc2/C1=C1/Nc2ccc(O)cc2/C1=N/O` ?
Result block: 200 µg/mL

Query block: Which solubility value is on record for `O=Nc1c(-c2c(O)[nH]c3ccc([N+](=O)[O-])cc23)[nH]c2ccccc12` ?
Result block: < 100 µg/mL

Query block: Which solubility value is on record for `O=C1Nc2ccc([N+](=O)[O-])cc2/C1=C1/Nc2ccc(Br)cc2/C1=N/O` ?
Result block: < 100 µg/mL

* * *

# assay-comment: Antiproliferative activity against human […] cells after 3 days by SRB assay
# Type: functional, cell-based
# cond: 72 h
Provide the reported IC50 of each item.
The reply should be a number in µM, with the unit left off.

Query block: Which IC50 value is on record for `O=C1Nc2ccc(OC(F)(F)F)cc2/C1=C1/Nc2ccc(Cl)cc2/C1=N/O` ?
Result block: 3.79

Query block: Which IC50 value is on record for `O=C1Nc2ccc(Cl)cc2/C1=C1/Nc2ccc(O)cc2/C1=N/O` ?
Result block: 3.51
